Recorded logP, one value per entry.
measured_property: logP

molecule	measured_property	reported_result
CC1=C(C(=O)O)N2C(=O)C(NC(=O)C(NC(=O)c3nn(-c4ccc(Cl)cc4Cl)c(=O)[nH]c3=O)c3ccccc3)C2SC1 (centres undefined)	logP	4.97
CC1=C(C(=O)O)N2C(=O)C(NC(=O)C(NC(=O)c3nn(-c4ccc(F)c(Cl)c4)c(=O)[nH]c3=O)c3ccc(O)cc3)C2SC1 (centres undefined)	logP	3.1
CC(=O)c1ccc(-n2nc(C(=O)NC(C(=O)NC3C(=O)N4C(C(=O)O)=C(C)CSC34)c3cccc(O)c3)c(=O)[nH]c2=O)cc1 (centres undefined)	logP	-0.04
CC1=C(C(=O)O)N2C(=O)C(NC(=O)C(NC(=O)c3nn(-c4ccc(C)cc4)c(=O)[nH]c3=O)c3cccc(O)c3)C2SC1 (centres undefined)	logP	2.53

----------
molecule	logP
CC1=C(C(=O)O)N2C(=O)C(NC(=O)C(NC(=O)c3nn(-c4ccc(C)cc4)c(=O)[nH]c3=O)c3ccccc3)C2SC1 (stereo not given)	4.8
CCOc1ccc(-n2nc(C(=O)NC(C(=O)NC3C(=O)N4C(C(=O)O)=C(C)CSC34)c3ccccc3)c(=O)[nH]c2=O)cc1 (stereo not given)	5.16
CC1=C(C(=O)O)N2C(=O)C(NC(=O)C(NC(=O)c3nn(-c4ccc(Cl)cc4)c(=O)[nH]c3=O)c3ccccc3)C2SC1 (stereo not given)	4.91
COc1ccc(-n2nc(C(=O)NC(C(=O)NC3C(=O)N4C(C(=O)O)=C(C)CSC34)c3ccccc3)c(=O)[nH]c2=O)cc1 (stereo not given)	3.87
CC(=O)c1ccc(-n2nc(C(=O)NC(C(=O)NC3C(=O)N4C(C(=O)O)=C(C)CSC34)c3ccccc3)c(=O)[nH]c2=O)cc1 (stereo not given)	2.71
CC1=C(C(=O)O)N2C(=O)[C@@H](NC(=O)[C@H](NC(=O)c3nn(-c4ccccc4)c(=O)[nH]c3=O)c3ccc(O)cc3)[C@H]2SC1	1.26
CC1=C(C(=O)O)N2C(=O)C(NC(NC(=O)c3nn(-c4ccc(S(N)(=O)=O)cc4)c(=O)[nH]c3=O)c3ccc(O)cc3)C2SC1 (stereo not given)	-0.39
CC1=C(C(=O)O)N2C(=O)C(NC(=O)C(NC(=O)c3nn(-c4ccc(Cl)cc4Cl)c(=O)[nH]c3=O)c3ccc(O)cc3)C2SC1 (stereo not given)	3.08
CC1=C(C(=O)O)N2C(=O)C(NC(=O)C(NC(=O)c3nn(-c4ccc([N+](=O)[O-])cc4)c(=O)[nH]c3=O)c3ccccc3)C2SC1 (stereo not given)	3.15
CC1=C(C(=O)O)N2C(=O)C(NC(=O)C(NC(=O)c3nn(-c4ccccc4)c(=O)[nH]c3=O)c3ccccc3)C2SC1 (stereo not given)	3.19
